Entry source: patent US20060264369

Molecular target: von Willebrand factor full length (Homo sapiens, UniProt P04275 SEQ:764-2813)
Test: filter; 28% bound at 100 nM vWF
Details: tags: Calbiochem 681300; label: 5'-32P
assay.metric: Kd (nM)
Write the number in nM without appending the unit.

Input: What value of Kd has been reported for the following binder? GGCGTGCAGTGCCTTCGGCCGTGCGGTGCCTCCGTCACGCC (ssDNA, 2'-OMe G6, 3'-idT) [ARC1199]
Output: 19
